Where these numbers come from: ChEMBL document CHEMBL1129315

The following molecules are shown together with reported pIC50 values.
- TEST_SYSTEM: L-selectin (Homo sapiens, UniProt P14151)
- Sequence (P14151 whole entry): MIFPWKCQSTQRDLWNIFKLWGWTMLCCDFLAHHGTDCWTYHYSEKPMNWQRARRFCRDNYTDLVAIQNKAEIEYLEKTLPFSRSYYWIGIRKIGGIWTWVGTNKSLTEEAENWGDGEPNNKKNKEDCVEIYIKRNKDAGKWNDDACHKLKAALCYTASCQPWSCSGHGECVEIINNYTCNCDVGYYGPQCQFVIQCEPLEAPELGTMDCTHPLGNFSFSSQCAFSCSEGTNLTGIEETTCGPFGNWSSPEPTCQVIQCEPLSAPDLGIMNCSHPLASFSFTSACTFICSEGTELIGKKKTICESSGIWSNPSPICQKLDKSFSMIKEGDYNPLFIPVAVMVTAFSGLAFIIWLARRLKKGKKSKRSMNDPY
- TEST_NAME: Inhibitory concentration against blocking of Selectin L during migration of inflammatory cells to inflammatory site
pIC50: −log10 of the molar value.
MEASURED_PROPERTY: pIC50

{"columns": ["MOLECULE", "TEST_SYSTEM", "RECORDED_RESULT"],
 "data": [
  ["CC1OC(OC2C(O)COC(CO)C2OC2OC(CO)C(O)C(OS(=O)(=O)O)C2O)C(O)C(O)C1O (configuration not stated)", "L-selectin (Homo sapiens, UniProt P14151)", "< 3.00"],
  ["CC(=O)N[C@H]1[C@H]([C@H](O)[C@H](O)CO)O[C@@](O[C@H]2[C@@H](O)[C@@H](CO)O[C@@H](O[C@@H]([C@H](O[C@@H]3O[C@@H](C)[C@@H](O)[C@@H](O)[C@@H]3O)[C@H](C=O)NC(C)=O)[C@H](O)CO)[C@@H]2O)(C(=O)O)C[C@@H]1O [SIALYL LEWIS X]", "L-selectin (Homo sapiens, UniProt P14151)", "< 3.00"]
]}

###

- TEST_SYSTEM: UniProtKB P16109
- Sequence (P16109 whole entry): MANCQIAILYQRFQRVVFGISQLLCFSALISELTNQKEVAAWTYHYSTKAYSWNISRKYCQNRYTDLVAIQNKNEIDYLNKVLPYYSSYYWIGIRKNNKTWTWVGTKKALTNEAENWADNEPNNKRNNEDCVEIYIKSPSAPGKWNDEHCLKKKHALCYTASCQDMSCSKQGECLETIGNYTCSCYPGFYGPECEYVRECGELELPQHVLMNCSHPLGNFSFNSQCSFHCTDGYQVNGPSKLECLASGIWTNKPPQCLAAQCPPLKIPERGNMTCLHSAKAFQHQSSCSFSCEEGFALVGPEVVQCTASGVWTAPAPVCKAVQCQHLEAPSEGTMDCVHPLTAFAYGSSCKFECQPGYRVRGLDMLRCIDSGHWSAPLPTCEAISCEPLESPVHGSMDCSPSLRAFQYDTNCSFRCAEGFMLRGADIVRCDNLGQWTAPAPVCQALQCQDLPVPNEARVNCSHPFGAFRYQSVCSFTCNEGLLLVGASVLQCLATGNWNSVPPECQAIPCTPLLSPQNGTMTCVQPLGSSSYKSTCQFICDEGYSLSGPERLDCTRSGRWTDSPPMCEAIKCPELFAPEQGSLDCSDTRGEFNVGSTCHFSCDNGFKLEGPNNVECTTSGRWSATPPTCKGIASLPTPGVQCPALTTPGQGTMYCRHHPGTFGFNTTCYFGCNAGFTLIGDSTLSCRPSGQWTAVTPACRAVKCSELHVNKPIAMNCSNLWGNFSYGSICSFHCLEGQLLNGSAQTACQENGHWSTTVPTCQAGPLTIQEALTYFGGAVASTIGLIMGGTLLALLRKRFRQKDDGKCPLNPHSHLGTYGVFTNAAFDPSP
- TEST_NAME: Inhibitory concentration against blocking of Selectin P during migration of inflammatory cells to inflammatory site
Quick list: IC50 per entry.

{"columns": ["COMPOUND", "IC50"],
 "data": [
  ["CC(=O)N[C@H]1[C@H]([C@H](O)[C@H](O)CO)O[C@@](O[C@H]2[C@@H](O)[C@@H](CO)O[C@@H](O[C@@H]([C@H](O[C@@H]3O[C@@H](C)[C@@H](O)[C@@H](O)[C@@H]3O)[C@H](C=O)NC(C)=O)[C@H](O)CO)[C@@H]2O)(C(=O)O)C[C@@H]1O", "> 1000 µM"],
  ["CC1OC(OC2C(O)COC(CO)C2OC2OC(CO)C(O)C(OS(=O)(=O)O)C2O)C(O)C(O)C1O (configuration not stated)", "300 µM"]
]}

###

- TEST_SYSTEM: E-selectin (Homo sapiens, UniProt P16581)
- Sequence (P16581 whole entry): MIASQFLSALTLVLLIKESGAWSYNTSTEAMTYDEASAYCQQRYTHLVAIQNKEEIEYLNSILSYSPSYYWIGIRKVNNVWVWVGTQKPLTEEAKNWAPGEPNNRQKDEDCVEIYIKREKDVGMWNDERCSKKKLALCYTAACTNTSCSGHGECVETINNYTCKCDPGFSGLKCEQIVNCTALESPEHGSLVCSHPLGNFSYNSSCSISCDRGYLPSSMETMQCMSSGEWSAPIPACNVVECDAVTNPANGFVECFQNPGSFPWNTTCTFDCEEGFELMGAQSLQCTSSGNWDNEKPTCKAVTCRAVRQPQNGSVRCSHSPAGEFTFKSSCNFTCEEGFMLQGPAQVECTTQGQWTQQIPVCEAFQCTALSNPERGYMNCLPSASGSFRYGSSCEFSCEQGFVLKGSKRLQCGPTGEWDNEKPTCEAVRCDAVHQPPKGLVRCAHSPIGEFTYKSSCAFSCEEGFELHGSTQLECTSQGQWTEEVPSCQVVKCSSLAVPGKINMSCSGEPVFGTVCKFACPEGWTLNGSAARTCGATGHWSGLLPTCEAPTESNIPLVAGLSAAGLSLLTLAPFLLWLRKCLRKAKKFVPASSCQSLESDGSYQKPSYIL
- TEST_NAME: Inhibitory concentration against blocking of E-selectin during migration of inflammatory cells to inflammatory site
pIC50: −log10 of the molar value.

{"columns": ["COMPOUND", "pIC50"],
 "data": [
  ["CC1OC(OC2C(O)COC(CO)C2OC2OC(CO)C(O)C(OS(=O)(=O)O)C2O)C(O)C(O)C1O (stereo unspecified)", "< 3.00"]
]}
